# Tested on: MS2 coat protein
# assay_procedure: apparent KD of MS2 coat protein; higher = weaker reporter binding
# measurement_context: Eterna round: R107; input ligand: theophylline 2 mM
The threshold is inclusive: apparent KD of MS2 coat protein of exactly 60 nM counts as condition met; values below receive condition not met.

Example cases with answers are listed next.
AGCAACUAGUCGGCCGCCACUCAUAUUACAUGAGGAUCACCCAUGUAUACAUGGUUGUUAUAUUUGAGGACCGGGACAGUUGCAU [JR_SSTryptoB_Sub018] : condition met
UUGUGGCGCUCGGCCGCCACUCCGACAUGAGGAUCACCCAUGUUCUACAUGAGGAUCACCCAUGUGAGGACCGGGAGACACUUCC [Exclusion Tryptophan B GF13] : condition met
AGCCACUCGAGUGAUCCUCACGAGUGGCUACGAGGACCGGUACGGCCGCCACUCGAAUUAACAUGAGGAUCACCCAUGUAAUCAC [Brourdmod05] : condition met
UGAGAGGGCGGAAGGAGCGACAUGAGGAUCACCCAUGUCUCCCGUUAUGGGAGUUCUUUAGGUCAGGUAGGUCGCCGGCCUCUCA [#1 Exclusion - Arginine B Attempt #10 (Inspired by Omei)] : condition met
UCAAUAAUUAGAUUGUUACAUGUAUCAGAAGGAGCGUGAGUAAUCACAGGUAGGUCGCUGUUAACAUGAGGAUCACCCAUGUUUU [JR_ExcArginiA_Sub009] : condition not met
GUCGGUACGUCGGCAAAGCCGAUGUGCCAGCGAGGACCGGUACGGCCGCCACUCGUACAUGAGGAUCACCCAUGUCCGGUCCGAC [Omei Trp SS A C v4] : condition met
CAAGACAUGAGGAUCACCCAUGUGGUGUACCGAGGACCGGUACGGCCGCCACUCGUUCAUCGGUCGACAAGCUACCCUUCAAGGU [theeternabot_sameState_MS2_Trp_A_7] : condition not met
AAUAAACAUGAGGAUCACCCAUGUAUGGAAGGAGCGGUGAAUAAACCAGGUAGGUCGCCAGUGUGAGGGUCAUCUAUGUAAUAAA [Exclusion - Arginine A (Freestyle 2)] : condition not met

Record GCAAAGUGAUCGGCCGCCACUGCAAUGCUUAAUGGAGGUCCACAUGAGGAUCACCCAUGUCUUCCCAGGACCGGGAUCUCGAGUU [theeternabot_sameState_MS2_Trp_B_3] ; criterion: apparent KD of MS2 coat protein no lower than 60 nM. Met? condition met

Given the entry AGAGUUAGACAAAAGUCUAGCUCACCAGAAGGAGCGUCCGAAAGGACAGGUAGGUCGCUGGUGCAUGAGGAUCACCCAUGCUCCU [ArgAS 19 #OpenEnded #AlternativeMS2] , answer whether its apparent KD of MS2 coat protein meets or surpasses 60 nM. condition met
